Target: T1, G-CSFR on NFS-60 cells (murine myeloblastic cell line) (mouse, UniProt P40223 26-837)
T1 sequence (looked up): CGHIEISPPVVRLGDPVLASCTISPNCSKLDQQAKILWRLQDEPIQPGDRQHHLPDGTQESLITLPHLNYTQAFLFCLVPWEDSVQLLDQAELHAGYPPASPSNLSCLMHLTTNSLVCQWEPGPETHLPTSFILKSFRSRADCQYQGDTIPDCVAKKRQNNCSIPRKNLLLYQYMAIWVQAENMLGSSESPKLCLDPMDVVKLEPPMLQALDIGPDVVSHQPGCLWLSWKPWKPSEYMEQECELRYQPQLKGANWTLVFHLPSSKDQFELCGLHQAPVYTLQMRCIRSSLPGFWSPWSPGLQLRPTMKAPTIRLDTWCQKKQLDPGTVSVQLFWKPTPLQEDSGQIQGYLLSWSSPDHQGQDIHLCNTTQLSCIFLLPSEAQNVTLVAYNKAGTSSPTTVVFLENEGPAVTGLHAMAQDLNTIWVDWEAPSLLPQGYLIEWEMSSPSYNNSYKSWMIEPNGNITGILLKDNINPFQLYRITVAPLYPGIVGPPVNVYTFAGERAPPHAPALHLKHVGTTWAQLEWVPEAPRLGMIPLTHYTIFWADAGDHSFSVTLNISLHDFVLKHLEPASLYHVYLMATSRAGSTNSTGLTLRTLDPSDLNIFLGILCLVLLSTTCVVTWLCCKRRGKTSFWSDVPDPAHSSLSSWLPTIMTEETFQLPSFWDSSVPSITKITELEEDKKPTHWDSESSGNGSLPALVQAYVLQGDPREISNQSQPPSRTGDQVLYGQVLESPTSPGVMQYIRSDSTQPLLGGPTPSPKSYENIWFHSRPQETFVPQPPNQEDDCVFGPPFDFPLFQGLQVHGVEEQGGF
Assay: cell-based or functional assay
Documented NFS-60 EC50 (ng/mL), proliferation of NFS-60 cells across a set of binders
Please state the figure in ng/mL; there is no need to write the unit.

These solved cases illustrate the format of a correct answer.
{"columns": ["Binder", "Endpoint Result"],
 "data": [
  ["boskar4_st2 (designed binder) AALAAALAEIYKGLAEYQARLKSLEGISPELGPALDALRLDMADFATTMAQAMEEGLDSLPQSFLLKALEQIRKIQADAAALREKLAATYKGNDRAAAAVEIAAQLEAFLEKAYQILRHLAAAGGGGSSAALAAALAEIYKGLAEYQARLKSLEGISPELGPALDALRLDMADFATTMAQAMEEGLDSLPQSFLLKALEQIRKIQADAAALREKLAATYKGNDRAAAAVEIAAQLEAFLEKAYQILRHLAAA", 0.202],
  ["moevan_st2 (designed binder) EAAAAARDESAYLKLQEQMRKIDADAAALSETRTIEELDTFKLDVADFVTTVVQLAEELEHRFGRNRRGRTEIYKIVKEVDRKLLDLTDAVLAKEKKGEDILNMVAEIKALLINIYKGGGGSSEAAAAARDESAYLKLQEQMRKIDADAAALSETRTIEELDTFKLDVADFVTTVVQLAEELEHRFGRNRRGRTEIYKIVKEVDRKLLDLTDAVLAKEKKGEDILNMVAEIKALLINIYK", 8.89]
]}

Now look at this one.
[in] If you can, please state the reported NFS-60 EC50 (ng/mL), proliferation of NFS-60 cells value of boskar4_t2 (designed binder) AALAAALAEIYKGLAEYQARLKSLEGISPELGPALDALRLDMADFATTMAQAMEEGLDSLPQSFLLKALEQIRKIQADAAALREKLAATYKGNDRAAAAVEIAAQLEAFLEKAYQILRHLAAAGGGGSSGGGGSSGGGGSSGGGGSSAALAAALAEIYKGLAEYQARLKSLEGISPELGPALDALRLDMADFATTMAQAMEEGLDSLPQSFLLKALEQIRKIQADAAALREKLAATYKGNDRAAAAVEIAAQLEAFLEKAYQILRHLAAA .
[out] 4.2
